System: DU-145 prostate
Assay: NCI tumour cell line growth inhibition, 48 h
readout: TGI

compound	TGI
O=C(O)CCNc1ccccc1C(=O)O	> 100 µM
C/C(CC/C(C)=N/O)=N\O	> 100 µM
Cc1ccc2c3c1O[C@H]1c4[nH]c5ccccc5c4C[C@@]4(O)[C@@H](C2)N(C)CC[C@]314	39 µM
O=c1sc2c(s1)SSSSS2	> 50 µM
COc1cc(C2SCC(=O)N2c2cc(Cl)c(Cl)cc2Cl)cc(OC)c1OC (stereo not drawn)	> 100 µM
O=C(OCc1ccccc1CN1CCOCC1)c1cccc(Br)c1	> 100 µM
O=C(CN1CCN(Cc2ccccc2)CC1)c1ccc2[nH]c(=O)oc2c1	> 100 µM
CC(=O)[C@@H]1[C@@H](OC(=O)CCC(C)COC2OC(CO)C(O)C(O)C2O)C[C@H]2[C@@H]3CC=C4C[C@@H](OC5OC(CO)C(OC6OC(C)C(O)C(O)C6O)C(O)C5OC5OC(C)C(O)C(O)C5O)CC[C@]4(C)[C@H]3CC[C@]12C (stereo partly drawn)	> 100 µM
C=C(C)C(=O)O[C@H]1C/C(CO)=C/CCC(=C)C(OC(C)=O)[C@H]2OC(=O)C(=C)[C@H]12 (stereo partly drawn)	37.4 µM
CO/N=C(\C)c1ccc(Nc2c3ccccc3nc3occc23)cc1	10.3 µM

Lookup result for CCCCCCCCCCCCNC(C)=O ; measured TGI: > 100 µM

Lookup result for C/C=C/[C@H]1O[C@@](O)([C@@H](C)[C@H](O)[C@H](C)[C@H]2OC(=O)/C(OC)=C/C(C)=C/[C@@H](C)[C@@H](O)[C@@H](CC)[C@@H](O)[C@H](C)C/C(C)=C/C=C/[C@@H]2OC)C[C@H](OC2CC(O)C(O)C(C)O2)[C@@H]1C (stereo partly drawn) ; measured TGI: 15.1 µM

Lookup result for CC1(C)[C@H](C(=O)O)N2C(=O)[C@@H](NS(=O)(=O)c3ccc([N+](=O)[O-])cc3)[C@H]2S1(=O)=O ; measured TGI: > 100 µM

Lookup result for CCOC(=O)c1c2c(c(O)c3ccccc3c(O)n(Cc3ccc(OC)cc3)c1C)C(=O)C=CC2=O ; measured TGI: > 100 µM

Lookup result for Nc1ccc2c(c1)C(=O)C(=O)c1c-2nc2ccccn12 ; measured TGI: 1.79 µM

Lookup result for COc1ccc(C2CC(c3cc(OC)c(OC)c(OC)c3)=NO2)cc1OCCCCOc1cc2c(cc1OC)C(=O)N1CCC[C@H]1C=N2 (stereo partly drawn) ; measured TGI: 7.43 µM

Lookup result for N#CN=C(N)c1sc2nc3c(c(-c4ccc(Br)cc4)c2c1N)CCCC3 ; measured TGI: 71.9 µM

Lookup result for CCOc1ccc2nc(-c3ccc(O)cc3)sc2c1 ; measured TGI: > 100 µM
